Test system: Kunming mice;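 also: acute toxicity in Kunming mice grouped by sex, one intraperitoneal dose at five graded levels in Tween-80 plus 0.5% CMC-Na, deaths monitored over two weeks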
Condition info: 50% male 50% female mice, 240 mg/kg, single i.p.

[
  {
    "Compound": "CCOC(=O)c1cc2c3ccccc3n(Cc3ccccc3)c2cn1 [Compound 33, ethyl 9-benzyl-β-carboline-3-carboxylate]",
    "Death rate": 50
  },
  {
    "Compound": "OCc1cc2c3ccccc3n(Cc3ccccc3)c2cn1 [Compound 42, 9-benzyl-3-hydroxymethyl-β-carboline]",
    "Death rate": 50
  },
  {
    "Compound": "O=C(O)c1cc2c3ccccc3n(CCCc3ccccc3)c2cn1",
    "Death rate": 60
  },
  {
    "Compound": "c1ccc(Cn2c3ccccc3c3ccncc32)cc1",
    "Death rate": 0
  },
  {
    "Compound": "CCOC(=O)Nc1cc2c3ccccc3n(Cc3ccccc3)c2cn1",
    "Death rate": 0
  },
  {
    "Compound": "O=C(O)c1cc2c3ccccc3n(Cc3ccccc3)c2cn1",
    "Death rate": 100
  },
  {
    "Compound": "COC(=O)c1cc2c([nH]c3ccccc32)c(-c2ccc(O)cc2)n1",
    "Death rate": 0
  },
  {
    "Compound": "CCOC(=O)c1cc2c([nH]c3ccccc32)c(C)n1 [Compound 11, ethyl 1-methyl-β-carboline-3-carboxylate]",
    "Death rate": 90
  },
  {
    "Compound": "CCCCn1c2ccccc2c2cc(C(=O)O)ncc21",
    "Death rate": 0
  }
]

---

Test system: Hela
Method summary: In vitro cytotoxicity, IC50 by MTT method, Hela
Assay type: cell-based
Condition info: Homo sapiens; Hela cell strain; read-out: IC50 Hela

[
  {
    "Molecule": "CCCCOC(=O)c1cc2c3ccccc3n(CC)c2cn1 [Compound 39, butyl 9-ethyl-β-carboline-3-carboxylate]",
    "Readout qualifier": "=",
    "IC50, µM": 70
  },
  {
    "Molecule": "CCn1c2ccccc2c2cc(C(=O)O)nc(-c3ccccc3)c21",
    "Readout qualifier": "=",
    "IC50, µM": 140
  },
  {
    "Molecule": "CCOC(=O)Nc1cc2c3ccccc3n(CC)c2cn1",
    "Readout qualifier": ">",
    "IC50, µM": 3000
  },
  {
    "Molecule": "CCn1c2ccccc2c2cc(NC(=O)OC)ncc21",
    "Readout qualifier": ">",
    "IC50, µM": 3000
  },
  {
    "Molecule": "CCCc1nc(C(=O)OCC)cc2c3ccccc3n(C)c12",
    "Readout qualifier": "=",
    "IC50, µM": 1360
  },
  {
    "Molecule": "CCOC(=O)Nc1cc2c3ccccc3n(Cc3ccccc3)c2cn1",
    "Readout qualifier": ">",
    "IC50, µM": 3000
  },
  {
    "Molecule": "CCCCn1c2ccccc2c2cc(C(=O)OC)ncc21",
    "Readout qualifier": "=",
    "IC50, µM": 290
  },
  {
    "Molecule": "CCCc1nc(C(=O)O)cc2c3ccccc3n(CC)c12",
    "Readout qualifier": "=",
    "IC50, µM": 420
  },
  {
    "Molecule": "CCCc1nc(C(=O)OCC)cc2c3ccccc3n(CC)c12",
    "Readout qualifier": "=",
    "IC50, µM": 90
  },
  {
    "Molecule": "c1ccc(Cn2c3ccccc3c3ccncc32)cc1",
    "Readout qualifier": "=",
    "IC50, µM": 50
  },
  {
    "Molecule": "O=C(O)c1cc2c3ccccc3n(CCCc3ccccc3)c2cn1",
    "Readout qualifier": "=",
    "IC50, µM": 100
  },
  {
    "Molecule": "CCCc1nc(C(=O)OCC)cc2c3ccccc3n(Cc3ccccc3)c12",
    "Readout qualifier": "=",
    "IC50, µM": 810
  },
  {
    "Molecule": "CCCCn1c2ccccc2c2cc(C(=O)OCC)ncc21 [Compound 32, ethyl 9-butyl-β-carboline-3-carboxylate]",
    "Readout qualifier": "=",
    "IC50, µM": 490
  },
  {
    "Molecule": "CCCCn1c2ccccc2c2ccncc21",
    "Readout qualifier": "=",
    "IC50, µM": 90
  },
  {
    "Molecule": "CCn1c2ccccc2c2cc(C(=O)O)nc(C)c21",
    "Readout qualifier": "=",
    "IC50, µM": 970
  },
  {
    "Molecule": "CCCCOC(=O)c1cc2c3ccccc3n(CCCC)c2cn1 [Compound 40, butyl 9-butyl-β-carboline-3-carboxylate]",
    "Readout qualifier": "=",
    "IC50, µM": 950
  },
  {
    "Molecule": "CCn1c2ccccc2c2cc(C(=O)OC)nc(-c3ccccc3)c21",
    "Readout qualifier": "=",
    "IC50, µM": 2660
  },
  {
    "Molecule": "CCOC(=O)c1cc2c3ccccc3n(CC)c2cn1 [Compound 31, ethyl 9-ethyl-β-carboline-3-carboxylate]",
    "Readout qualifier": "=",
    "IC50, µM": 140
  }
]
